Cited source for all entries: ChEMBL document CHEMBL3433997

# measured.target: Hexose transporter 1 (Plasmodium falciparum)
# procedure.summary: ST_JUDE_LEISH: Cytotoxicity at 2uM final concentration against transgenic Leishmania Mexicana promastigotes LmPfHT that are glucose transport deficient and complemented with the Plasmodium falciparum hexose transporter. Activity is measured by DNA content using SYBR green in vitro
# Format: functional
endpoint: inhibition (%)
Write the answer as a number in %, unit excluded.

Recorded inhibition, per entry:
{"columns": ["smiles.representation", "readout.units", "inhibition"],
 "data": [
  ["CCN(CC)/C(=N/C(=N)Nc1ccc(Cl)cc1)NCCCCCCCCN/C(=N\\C(=N)Nc1ccc(Cl)cc1)N(CC)CC", "%", -0.74],
  ["CCCCCCCCOc1c(OCC)cc(Cc2cnc(N)nc2N)cc1OCC", "%", 7.75],
  ["N=C(N)Nc1nc(CCCCCCCCc2csc(NC(=N)N)n2)cs1", "%", -0.76],
  ["O=S(=O)(NCCN1CCCC1)c1ccc(-c2ccc(CNC3Cc4ccccc4C3)cc2)cc1", "%", 0.85],
  ["CCc1c[nH]c2c(N3CCCC3=O)cc(C(=O)N[C@@H](Cc3ccccc3)[C@H](O)CNC(C)(C)c3cccc(OC)c3)cc12", "%", 1.3],
  ["CN(CCc1ccccn1)c1cccc2c1nc(-c1cccnc1)n2CCNCc1ccccc1", "%", 13.4]
]}

The compound O=[N+]([O-])c1cccc(CNCC2CCN(Cc3ccc(-c4ccccc4)cc3)CC2)c1 showed inhibition equal to 2.39

Per the records, this compound ( COC(=O)C(C)(C)Cc1c(SC(C)(C)C)c2cc(C(C)C)ccc2n1Cc1ccc(Cl)cc1 ) has inhibition equal to 5.38

Recorded result, Fc1ccc2[nH]cc(CCNCc3ccc(-c4cccc(-c5nc6ccccc6[nH]5)c4)cc3)c2c1 , inhibition: 4.54
